# system.tested: Human B0AT1 (Homo sapiens (Human), UniProt Q695T7)
# Sequence (Q695T7 whole entry): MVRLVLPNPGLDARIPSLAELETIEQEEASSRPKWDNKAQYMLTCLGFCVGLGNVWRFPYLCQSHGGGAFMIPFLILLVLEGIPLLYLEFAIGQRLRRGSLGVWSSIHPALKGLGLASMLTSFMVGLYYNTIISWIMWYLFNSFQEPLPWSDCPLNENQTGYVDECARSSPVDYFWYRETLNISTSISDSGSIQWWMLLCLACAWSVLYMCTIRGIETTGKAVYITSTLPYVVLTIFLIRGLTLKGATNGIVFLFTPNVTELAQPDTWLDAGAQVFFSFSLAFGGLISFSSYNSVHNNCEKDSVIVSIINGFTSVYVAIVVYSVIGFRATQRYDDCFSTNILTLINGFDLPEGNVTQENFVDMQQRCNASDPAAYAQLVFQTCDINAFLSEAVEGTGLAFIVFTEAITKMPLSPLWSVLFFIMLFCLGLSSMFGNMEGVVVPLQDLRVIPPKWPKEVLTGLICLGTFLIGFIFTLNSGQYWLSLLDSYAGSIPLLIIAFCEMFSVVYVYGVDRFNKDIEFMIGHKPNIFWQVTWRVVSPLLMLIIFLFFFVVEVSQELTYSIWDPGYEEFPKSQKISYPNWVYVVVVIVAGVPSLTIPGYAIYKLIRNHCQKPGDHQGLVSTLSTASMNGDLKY
# measurement.description: hB0AT1 inhibitory test (phenylalanine uptake)
# run.conditions: Human B0AT1 stable expression CHO cells; [3H]-L-phenylalanine uptake, phenylalanine 0.25 mM
Decide using IC50 alone. Strictly below 50 nM: met. Equal to or above 50 nM: not met.

>>> class_label("O=C(/C=C/c1ccc(C(F)(F)F)cc1)NCC(=O)N1Cc2nccnc2C1")
"not met"

Problem: Strictly below 50 nM: is that where IC50 of O=C(/C=C/c1ccc(C(F)(F)F)cc1)NCC(=O)N1CC[C@H](O)C1 sits?
Solution: not met

Problem: Quick check: IC50 of O=C(/C=C/c1ccc(C(F)(F)F)cc1)NCC(=O)N1CCn2nccc2C1 under 50 nM?
Solution: met

Problem: Regarding CC1CN(C)CCN1C(=O)CNC(=O)/C=C/c1ccc(C(F)(F)F)cc1 (stereo not drawn) , kindly confirm whether its IC50 is beneath 50 nM.
Solution: met

Problem: Decide: IC50 of Cc1cc2n(n1)CCCN2C(=O)CNC(=O)/C=C/c1ccc(C(F)(F)F)cc1 strictly below 50 nM?
Solution: met

Problem: Please determine if COc1ccc2c(n1)CN(C(=O)CNC(=O)/C=C/c1ccc(C(F)(F)F)cc1)CC2 is below 50 nM in terms of IC50.
Solution: met

---

For each of the molecules below, state its pIC50.
# system.tested: Human B0AT1 (Homo sapiens (Human), UniProt Q695T7)
# measurement.description: hB0AT1 inhibitory test (phenylalanine uptake)
# run.conditions: Human B0AT1 stable expression CHO cells; [3H]-L-phenylalanine uptake, phenylalanine 0.25 mM
Numbers only, as −log10 of the molar value.

Some entries whose results are on file:
>>> value_observed("CCOc1ccc(/C=C/C(=O)NCC(=O)N2CCN(C)CC2)cc1")
6.70
>>> value_observed("CCN(CCOC)C(=O)CNC(=O)/C=C/c1ccc(C(F)(F)F)cc1")
6.58
>>> value_observed("O=C(/C=C/c1ccc(C(F)(F)F)cc1)NCC(=O)N1CCCNC(=O)C1")
5.76
>>> value_observed("CN1CCN(C(=O)CNC(=O)/C=C/c2ccc(C(F)(F)F)cc2)CC1c1ccccc1 (stereo not drawn)")
6.95
>>> value_observed("CC(O)c1cc2n(n1)CCN(C(=O)CNC(=O)/C=C/c1ccc(C(F)(F)F)cc1)C2 (stereo not drawn)")
7.30

For each of the items listed, what is its pIC50?
1. CN1CCN(C(=O)CNC(=O)/C=C/c2ccc(C(F)(F)F)cc2)[C@H](C(=O)O)C1
2. O=C(/C=C/c1ccc(C(F)(F)F)cc1)NCC(=O)N1CCn2nc(C(=O)O)cc2C1
3. CS(=O)(=O)[C@@H]1CCN(C(=O)CNC(=O)/C=C/c2ccc(C(F)(F)F)cc2)C1
4. C[C@@H]1c2ncnn2CCN1C(=O)CNC(=O)/C=C/c1ccc(C(F)(F)F)cc1

Solution:
[6.76, 6.90, 6.26, 6.09]

---

# system.tested: Human B0AT1 (Homo sapiens (Human), UniProt Q695T7)
# measurement.description: hB0AT1 inhibitory test (phenylalanine uptake)
# run.conditions: Human B0AT1 stable expression CHO cells; [3H]-L-phenylalanine uptake, phenylalanine 0.25 mM
measurement.type: pIC50
Give bare numbers, as −log10 of the molar value.

Please state pIC50 for every compound in the list that follows.
1. O=C(/C=C/c1ccc(C(F)(F)F)cc1)NCC(=O)N1CCCn2ncnc2C1
2. O=C(/C=C/c1ccc(C(F)(F)F)cc1)NCC(=O)N1CCc2c(cccc2C(F)(F)F)C1
3. Cc1nnc(CN(CC2(F)CC2)C(=O)CNC(=O)/C=C/c2ccc(C(F)(F)F)cc2)o1
4. CS(=O)(=O)Nc1ccc2c(c1)CCN(C(=O)CNC(=O)/C=C/c1ccc(C(F)(F)F)cc1)C2

Solution:
6.50
6.85
7.49
7.47
